# Test system: OVCAR-3 ovarian
# METHOD_SUMMARY: NCI-60 one-dose screen, 48 h (100 = growth as untreated, 0 = no growth, -100 = all killed)
# STATED_CONDITIONS: 10 µM unless noted
The panel holds about 83,000 compounds, 20% with a hit somewhere; the sample as a whole holds those more often.
REPORTED_ENDPOINT: growth (%)
The response must be a number in % with no trailing unit.

COMPOUND | TESTED_ON | RESULT_NUMBER
CC(=O)c1ccc(-n2c(-c3cc(-c4ccsc4)n[nH]3)n[nH]c2=S)cc1 | OVCAR-3 ovarian | 113
N#Cc1c(N)n(C2OC(CO)C(O)C2O)c2ncnc(N)c12 (configuration not stated) | OVCAR-3 ovarian | -62.1
CSC(=S)N/N=C(\C)c1ccccn1 | OVCAR-3 ovarian | 5.95
CCCCCCCCCC1=NC(C)(C)CN1C(C)(C)CO | OVCAR-3 ovarian | 86.1

Provide one value: measured growth of COc1cccc(OCC(O)CN2CCN(c3ccccc3)CC2)c1 (configuration not stated)
112
